assay: Pharmacokinetic study of RPDQ in rats after intragastric and intravenous administration (UPLC-MS/MS of plasma); type: in vivo, Wistar rats; settings: both sexes, Wistar, rat, plasma, iv; rats, 0.3 mg/kg i.v.
Readout name: Tmax (min)
Numeric answer only, unit min assumed.

[ask] Need Tmax of CC(C)(O)[C@@H]1CC[C@@](C)([C@H]2CC[C@]3(C)[C@@H]2[C@H](O[C@@H]2O[C@H](CO)[C@@H](O)[C@H]2O)C[C@@H]2[C@@]4(C)CC[C@H](O)C(C)(C)[C@@H]4CC[C@]23C)O1 , thanks.
[reply] 15

====

experiment: Pharmacokinetic study of RPDQ in rats after intragastric and intravenous administration (UPLC-MS/MS of plasma); type: in vivo, Wistar rats; details: both sexes, Wistar, rat, plasma, po; rats, 6 mg/kg intragastric; read-out: AUC(0–60)
Readout name: AUC(0-t)

[ask] Need AUC(0-t) of CC(C)(O)[C@@H]1CC[C@@](C)([C@H]2CC[C@]3(C)[C@@H]2[C@H](O[C@@H]2O[C@H](CO)[C@@H](O)[C@H]2O)C[C@@H]2[C@@]4(C)CC[C@H](O)C(C)(C)[C@@H]4CC[C@]23C)O1 [RPDQ] , thanks.
[reply] 9210 ng·h/mL

====

Experiment: Pharmacokinetic study of RPDQ in rats after intragastric and intravenous administration (UPLC-MS/MS of plasma)
Assay type: in vivo, Wistar rats
Settings: both sexes, Wistar, rat, plasma, po; rats, 12 mg/kg intragastric
Experimental: The experiments on animals were approved by the Review Committee of Animal Care and Use of Jilin University. The study was conducted according to the ethical principles for animal use and care. Wistar rats (200 ± 20 g) were provided by Changchun Yisi Laboratory Animal Co. Ltd. (Changchun, China). […] Samples containing RPDQ above the upper limit of quantification were diluted and re-analyzed. […]
Readout name: half-life
Put your answer as a value accompanied by its unit after it.

[ask] Need half-life of CC(C)(O)[C@@H]1CC[C@@](C)([C@H]2CC[C@]3(C)[C@@H]2[C@H](O[C@@H]2O[C@H](CO)[C@@H](O)[C@H]2O)C[C@@H]2[C@@]4(C)CC[C@H](O)C(C)(C)[C@@H]4CC[C@]23C)O1 [RPDQ] , thanks.
[reply] 770 min

====

experiment: Pharmacokinetic study of RPDQ in rats after intragastric and intravenous administration (UPLC-MS/MS of plasma); format: in vivo, Wistar rats; details: both sexes, Wistar, rat, plasma, po; rats, 24 mg/kg intragastric; read-out: AUC(0–60)
Readout name: AUC(0-t) (ng·h/mL)
Numeric answer only, unit ng·h/mL assumed.

[ask] Need AUC(0-t) of CC(C)(O)[C@@H]1CC[C@@](C)([C@H]2CC[C@]3(C)[C@@H]2[C@H](O[C@@H]2O[C@H](CO)[C@@H](O)[C@H]2O)C[C@@H]2[C@@]4(C)CC[C@H](O)C(C)(C)[C@@H]4CC[C@]23C)O1 , thanks.
[reply] 40400

====

assay: Pharmacokinetic study of RPDQ in rats after intragastric and intravenous administration (UPLC-MS/MS of plasma); format: in vivo, Wistar rats; settings: both sexes, Wistar, rat, plasma, po; rats, 12 mg/kg intragastric
Readout name: Tmax
Put your answer as a value accompanied by its unit after it.

[ask] Need Tmax of CC(C)(O)[C@@H]1CC[C@@](C)([C@H]2CC[C@]3(C)[C@@H]2[C@H](O[C@@H]2O[C@H](CO)[C@@H](O)[C@H]2O)C[C@@H]2[C@@]4(C)CC[C@H](O)C(C)(C)[C@@H]4CC[C@]23C)O1 , thanks.
[reply] 7.5 h
